Each recorded value in this set is attributed to ChEMBL document CHEMBL1124435.

# experimentalContext: octanol/water
endpoint: logP
One number for each entry.

Below: 5 compounds and their reported logP.
CCOC(=O)CNC(=O)COC(=O)c1ccccc1OC(C)=O: 0.99
CC(=O)Oc1ccccc1C(=O)OCC(=O)N(C)CC(N)=O: -0.46
CCOC(=O)COC(=O)c1ccccc1OC(C)=O: 1.67
CC(=O)Oc1ccccc1C(=O)OCC(=O)N(C(C)C)C(C)C: 2.03
CC(=O)OCOC(=O)c1ccccc1OC(C)=O: 1.42

Can you give me logP for all of these, one by one?
1. CC(=O)Nc1ccc(OC(=O)c2ccccc2OC(C)=O)cc1 [BENORILATE]
2. CC(=O)Oc1ccccc1C(=O)OC[S+](C)[O-] (stereo not given)
3. CCNC(=O)COC(=O)c1ccccc1OC(C)=O

Reply |
1: 2.15; 2: 0.11; 3: 0.9

Can you give me logP for all of these, one by one?
1. CC(=O)Oc1ccccc1C(=O)OCC(=O)NCC(N)=O
2. CCOC(=O)CN(C)C(=O)COC(=O)c1ccccc1OC(C)=O

Reply |
1: -0.43; 2: 1.67

Can you give me logP for all of these, one by one?
1. COC(=O)c1ccccc1OC(C)=O
2. CC(=O)Oc1ccccc1C(=O)OCC(=O)N(C)C

Reply |
1. 1.46
2. 0.38

Can you give me logP for all of these, one by one?
1. CSCOC(=O)c1ccccc1OC(C)=O
2. CC(=O)Oc1ccccc1C(=O)Oc1ccccc1
3. CC(=O)Oc1ccccc1C(=O)OCC(=O)N(C)CCO

Reply |
1.94
2.88
0.06

====

Please go through the items and note down their log10 of K2.
# methodNotes: Observed second order rate constant
Log scale reminder: K2 in min⁻¹, then log10 taken.

Below: 5 compounds and their reported log10 of K2.
CCOC(=O)CNC(=O)COC(=O)c1ccccc1OC(C)=O: -0.67
CC(=O)Oc1ccccc1C(=O)OCC(=O)N(C)CC(N)=O: -1.24
CC(=O)Oc1ccccc1C(=O)OC[S+](C)[O-] (stereo not given): -0.84
CCOC(=O)CN(C)C(=O)COC(=O)c1ccccc1OC(C)=O: -0.47
CC(=O)Oc1ccccc1C(=O)Oc1ccccc1: -0.28

Can you give me log10 of K2 for all of these, one by one?
1. CC(=O)Nc1ccc(OC(=O)c2ccccc2OC(C)=O)cc1 [BENORILATE]
2. CC(=O)Oc1ccccc1C(=O)OCC(=O)NCC(N)=O
3. CC(=O)Oc1ccccc1C(=O)OCC(=O)N(C)C
4. CC(=O)Oc1ccccc1C(=O)Oc1ccccc1C(=O)O [DIPLOSALSALATE]

Reply |
1. -0.31
2. -0.87
3. -0.98
4. -2.03

Can you give me log10 of K2 for all of these, one by one?
1. CC(=O)Oc1ccccc1C(=O)OCC(=O)N(C1CCCCC1)C1CCCCC1
2. CC(=O)OCOC(=O)c1ccccc1OC(C)=O
3. CCCC(=O)OCOC(=O)c1ccccc1OC(C)=O

Reply |
1: -1.47; 2: -0.55; 3: -0.14

====

# Species: Homo sapiens
# methodNotes: Percentage of aspirin formed during hydrolysis in undiluted human plasma at pH 7.4 at 37 degrees celsius
Please go through the items and note down their Aspirin formed.
Answers are plain numbers, in %.

CC(=O)Oc1ccccc1C(=O)OCC(=O)N(C)C: 49
CC(=O)Oc1ccccc1C(=O)OCC(=O)N(C(C)C)C(C)C: 21
CC(=O)Oc1ccccc1C(=O)OCCN(C)C.Cl: 8
CC(=O)Oc1ccccc1C(=O)OCC(=O)N(C)CCO: 40
CC(=O)OCOC(=O)c1ccccc1OC(C)=O: 28

Now let's try a different one.
In plain terms, CC(=O)Oc1ccccc1C(=O)OC[S+](C)[O-] (stereo unspecified) has a documented Aspirin formed of 31
